Cited source for all entries: patent US20120196899A1

- ASSAY_INFO: Plasma pharmacokinetics after oral multi-dose anatabine polacrilex
- Assay type: in vivo, Sprague-Dawley rats
- SETUP_CONDITIONS: female, Sprague-Dawley, rat, plasma, po, 0.6 mg/kg, female rats, mean; read-out: t1/2, terminal (converted)
MEASURED_ATTRIBUTE: half-life (h)
One number for each entry, in h.

The recorded half-life for C1=CCC(c2cccnc2)NC1 (racemic) [Anatabine, 1,2,3,6-tetrahydro-[2,3′]bipyridinyl] is 1.8

* * *

- ASSAY_INFO: Concentration in brain extracts after single i.v. bolus
- Assay type: in vivo, Sprague-Dawley rats
- SETUP_CONDITIONS: both sexes, Sprague-Dawley, rat, brain, intravenous, 0.75 mg/kg, Anatabine 0.75 mg/kg; male and female; 6 hr; read-out: Avg. Conc. rat brain, combined male and female
MEASURED_ATTRIBUTE: concentration at 6 h (ng/g)
Numbers only, in ng/g.

Entry C1=CCC(c2cccnc2)NC1 (racemic) [Anatabine, 1,2,3,6-tetrahydro-[2,3′]bipyridinyl] , concentration at 6 h reported as 21.2

* * *

- ASSAY_INFO: Plasma toxicokinetics after single i.v. bolus
- Assay type: in vivo, Sprague-Dawley rats
- SETUP_CONDITIONS: female, Sprague-Dawley, rat, plasma, iv, 1 mg/kg
- Experimental: Six rats (3 males and 3 females) were dosed per dose group. […] Plasma and brain homogenates were stored at −80° C. until analysis. […] Four aliquots of each dose level formulation were collected and stored at −80° C. […] The physical signs of each animal were monitored following administration of the test compound. […] Sample preparation. […] The amount of the test agent in the supernatant was determined by liquid chromatography tandem mass spectrometry (LC/MS/MS). […]
MEASURED_ATTRIBUTE: AUC(0-inf) (ng·h/mL)
One number for each entry, in ng·h/mL.

The value of AUC(0-inf) measured for the compound C1=CCC(c2cccnc2)NC1 (racemic) [Anatabine, 1,2,3,6-tetrahydro-[2,3′]bipyridinyl] turned out to be 789

* * *

- ASSAY_INFO: Plasma toxicokinetics after single i.v. bolus
- Format: in vivo, Sprague-Dawley rats
- SETUP_CONDITIONS: Sprague-Dawley, rat, plasma, intravenous, 0.1 mg/kg, Concentration of anatabine in rat plasma, Anatabine 0.1 mg/kg, Rat Plasma, 4 hr, individual rats
MEASURED_ATTRIBUTE: concentration at 4 h
Quote the value and follow it with the unit of measurement.

What the record says about C1=CCC(c2cccnc2)NC1 (racemic) [Anatabine, 1,2,3,6-tetrahydro-[2,3′]bipyridinyl] : concentration at 4 h is 3 ng/mL

* * *

- ASSAY_INFO: Plasma toxicokinetics after single i.v. bolus
- Type: in vivo, Sprague-Dawley rats
- SETUP_CONDITIONS: Sprague-Dawley, rat, plasma, intravenous, 1 mg/kg, Concentration of anatabine in rat plasma, Anatabine 1.0 mg/kg, rat plasma, 0.5 hr, rats of group 6
MEASURED_ATTRIBUTE: concentration at 0.5 h (ng/mL)
Give bare numbers, in ng/mL.

For C1=CCC(c2cccnc2)NC1 (racemic) [Anatabine, 1,2,3,6-tetrahydro-[2,3′]bipyridinyl] the compound record lists concentration at 0.5 h as 222

* * *

- ASSAY_INFO: Plasma pharmacokinetics after oral multi-dose anatabine polacrilex
- Type: in vivo, Sprague-Dawley rats
- SETUP_CONDITIONS: male, Sprague-Dawley, rat, plasma, oral, 2 mg/kg BW, Avg. Conc. of anatabine in plasma, dose group 2, male, 235 min
MEASURED_ATTRIBUTE: concentration at 235 min (ng/mL)
One number for each entry, in ng/mL.

Lab note: measured concentration at 235 min of C1=CCC(c2cccnc2)NC1 (racemic) [Anatabine, 1,2,3,6-tetrahydro-[2,3′]bipyridinyl] was 72
